Where these numbers come from: PubChem BioAssay (NCI)

System: TK-10 renal
Assay: NCI-60 one-dose screen, 48 h (100 = growth as untreated, 0 = no growth, -100 = all killed)
Conditions: 10 µM unless noted
This is part of a sample that, as a whole, favours compounds with a hit. Of some 83,000 tested, about 20% had one in any assay.
Quantity: growth (%)
Answers are plain numbers, in %.

# example entries with known answers
[
  {
    "Molecule": "Cc1cc(NC(=O)CSCC(=O)O)no1",
    "Endpoint Value": 86.6
  },
  {
    "Molecule": "CSC[C@H](NC(=O)COc1cccc2cnccc12)C(=O)NC(Cc1ccccc1)C(O)C(=O)N1CSC[C@H]1C(=O)NC(C)(C)C (stereo partly specified)",
    "Endpoint Value": 139
  },
  {
    "Molecule": "CC(=O)OCCC(C)CCC=C(C)C (stereo unspecified)",
    "Endpoint Value": 106
  }
]

Hey, can you go through the list below and give me growth for every item?
1. Nc1ccc(N=Nc2ccc(S(=O)(=O)O)cc2)c2ccccc12
2. CN(C)CCN(Cc1ccccc1)c1ccccc1
3. CC1(C)/C(=C\CO)C2CCC1C2 (stereo unspecified)
4. Cc1ccc(C(=O)c2ccccc2)c(C)c1
5. O=C1C=C(Nc2ccc([N+](=O)[O-])cc2)c2ccccc2C1=O
6. CCOc1ccc(I)cc1

Result:
1: 140; 2: 110; 3: 89.7; 4: 109; 5: 80.4; 6: 112
